test: amyloid nucleation score (Sup35N fusion, yeast selection) (log enrichment); library NNK2; higher = more nucleation; inactive = no reads after selection;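 further: zero at mode of non-aggregating sequences after 7 days selection at 30°C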
Assign condition met whenever amyloid nucleation score does not fall below 0.1; assign condition not met whenever it does.

1. ARLVYQLATRTCCFSQ condition not met
2. ENHQCGWGLPLCTVVSR condition met
3. EFFISVSLNWCKTDCYTDPW condition not met
4. SKGGCTEFIEKTWNLCSCLV condition not met
5. NESNYRVVRGKFKSEFRAEL condition met
6. YPGWPMKTVQ condition met
7. MYEFQPRLDHRLFRYICMNV condition not met
8. WNKLSLA condition met
9. CMSSDIYFLVFTESEIVSLC condition not met
10. YLASNLEDKWVWDGFMLVSR condition met
11. AALCRMFWTAISYWCEWSLG condition met
12. CWVRLIVGMTCYAFKGGSVV condition met
13. MRLTTGINF condition not met
14. ALRVLFLVVWSEHDDCYCGG condition met
15. LNSHSITMLLNSVCGCQSWT condition met
16. AFSSLFWIWIPSNMRSQVLK condition met
